- system: T1, HLA-DR molecule DRB1*0802 (human)
- T1 chain 1: not shown
- T1 chain 2: not shown
- measurement.protocol: radioligand inhibition, purified HLA-DR
- measurement.parameters: remark: other sources report otherwise
measurement.name: IC50
Please give the number followed by its unit.

- LKSGMKELAVFREKV [Peptide 9019.0185 (IGFBP2.184)]: 260 nM

Continue with the next binder.
Given HNQVRQVPLQRLRIV [Peptide 9019.0034 (Her2/neu.88)] , state its recorded IC50.
85 nM
